src = patent US20230365662A1

- system name: HRgpA-6H (Porphyromonas gingivalis) (UniProt P28784)
- measurement description: ELISA, FASEBA Fab on coated HRgpA-6H
test readout: OD450nm
Give bare numbers.

// below: answered binders
1. KB001 mouse Fab VL L55S (Fab, V domains shown) VH: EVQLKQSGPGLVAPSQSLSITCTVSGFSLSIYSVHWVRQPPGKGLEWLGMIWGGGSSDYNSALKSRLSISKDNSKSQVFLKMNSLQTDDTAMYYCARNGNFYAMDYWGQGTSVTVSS VL: QIVLTQSPAIMSASLGERVTMTCTASSSVSSSFLHWYQQKPGSSPQLWIYSTSNSASGVPARFSGSGSGTSYSLTISSMEAEDAATYYCHQYHHSPYIYTFGGGTKLEIK
0.672
2. KB001 mouse Fab VL N54Q (Fab, V domains shown) VH: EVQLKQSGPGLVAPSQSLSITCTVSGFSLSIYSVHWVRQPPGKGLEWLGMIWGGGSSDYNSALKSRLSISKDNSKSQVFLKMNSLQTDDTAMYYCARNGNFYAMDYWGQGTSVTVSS VL: QIVLTQSPAIMSASLGERVTMTCTASSSVSSSFLHWYQQKPGSSPQLWIYSTSQLASGVPARFSGSGSGTSYSLTISSMEAEDAATYYCHQYHHSPYIYTFGGGTKLEIK
0.868

Would you kindly look at the next entry?
Which OD450nm is reported for this binder? KB001 mouse Fab VL S32G (Fab, V domains shown) VH: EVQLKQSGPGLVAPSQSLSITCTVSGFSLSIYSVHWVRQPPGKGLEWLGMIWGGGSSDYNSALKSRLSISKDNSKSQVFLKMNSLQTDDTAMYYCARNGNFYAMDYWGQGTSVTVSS VL: QIVLTQSPAIMSASLGERVTMTCTASSSVSSGFLHWYQQKPGSSPQLWIYSTSNLASGVPARFSGSGSGTSYSLTISSMEAEDAATYYCHQYHHSPYIYTFGGGTKLEIK
0.759
